tgt: HLA-A*01:01
assay.method.text: IEDB peptide-MHC binding, purified MHC/direct/fluorescence; filed as Kd, often an IC50 or EC50 that approximates it; bounds were set here for any values at or beyond the usual limits of such assays
experimental.setup: source organism: Corynebacterium glutamicum
pKd: −log10 of the molar value.
assay.readout: pKd

What pKd value was documented for this sequence, VLPVPGASV ?
≤ 4.70

----------
tgt: HLA-B*15:01
assay.method.text: IEDB peptide-MHC binding, purified MHC/direct/fluorescence; filed as Kd, often an IC50 or EC50 that approximates it; bounds were set here for any values at or beyond the usual limits of such assays
experimental.setup: source organism: Mycolicibacterium gilvum
assay.readout: Kd

What Kd value was documented for this sequence, PHDPDFLVL ?
≥ 20 µM

----------
tgt: HLA-A*01:01
assay.method.text: IEDB peptide-MHC binding, purified MHC/direct/fluorescence; filed as Kd, often an IC50 or EC50 that approximates it; bounds were set here for any values at or beyond the usual limits of such assays
experimental.setup: source organism: Francisella tularensis subsp. tularensis
assay.readout: Kd

GET /values?readout=Kd&system=HLA-A*01:01&item= RYSNFAWYF
≥ 20 µM

----------
tgt: HLA-B*44:02
assay.method.text: IEDB peptide-MHC binding, purified MHC/direct/fluorescence; filed as Kd, often an IC50 or EC50 that approximates it; bounds were set here for any values at or beyond the usual limits of such assays
experimental.setup: source organism: Vibrio vulnificus
assay.readout: Kd

What Kd value was documented for this sequence, STDTRHIPQ ?
≥ 20 µM

----------
tgt: HLA-A*02:01
assay.method.text: IEDB peptide-MHC binding, purified MHC/direct/fluorescence; filed as Kd, often an IC50 or EC50 that approximates it; bounds were set here for any values at or beyond the usual limits of such assays
experimental.setup: source organism: Ebola virus - Mayinga, Zaire, 1976
assay.readout: Kd

What Kd value was documented for this sequence, FIYFGKKQY ?
≥ 20 µM

----------
tgt: HLA-B*35:01
assay.method.text: IEDB peptide-MHC binding, purified MHC/competitive/fluorescence; filed as Kd, often an IC50 or EC50 that approximates it; bounds were set here for any values at or beyond the usual limits of such assays
experimental.setup: source organism: Vaccinia virus WR
assay.readout: Kd (µM)
Quick reminder: number only, in µM, skip the unit.

What Kd value was documented for this sequence, IQFMHEQGY ?
0.104

----------
tgt: HLA-A*24:02
assay.method.text: IEDB peptide-MHC binding, purified MHC/competitive/fluorescence; bounds were set here for any values at or beyond the usual limits of such assays
experimental.setup: source organism: Sudan ebolavirus
# IC50 per entry
Quick reminder: number only, in µM, skip the unit.

>>> df
   sequence_string  observed
0        NITDKINQI      5.96

GET /values?readout=IC50&system=HLA-A*24:02&item= QHNAAGIAW
21.2

----------
tgt: HLA-A*02:01
assay.method.text: IEDB peptide-MHC binding, purified MHC/competitive/fluorescence; bounds were set here for any values at or beyond the usual limits of such assays
experimental.setup: source organism: Monodelphis domestica
assay.readout: IC50 (nM)
Quick reminder: number only, in nM, skip the unit.

What IC50 value was documented for this sequence, FLLPILSQIYT ?
5.3

----------
tgt: HLA-B*57:01
assay.method.text: IEDB peptide-MHC binding, purified MHC/direct/fluorescence; filed as Kd, often an IC50 or EC50 that approximates it; bounds were set here for any values at or beyond the usual limits of such assays
experimental.setup: source organism: Mycolicibacterium gilvum
pKd: −log10 of the molar value.
assay.readout: pKd

What pKd value was documented for this sequence, PHDPDFLVL ?
≤ 4.70

----------
tgt: HLA-B*35:01
assay.method.text: IEDB peptide-MHC binding, purified MHC/direct/fluorescence; filed as Kd, often an IC50 or EC50 that approximates it; bounds were set here for any values at or beyond the usual limits of such assays
experimental.setup: source organism: Campylobacter jejuni
assay.readout: Kd (nM)
Quick reminder: number only, in nM, skip the unit.

What Kd value was documented for this sequence, SFWFFHPPY ?
351

----------
tgt: HLA-A*30:02
assay.method.text: IEDB peptide-MHC binding, purified MHC/competitive/radioactivity; filed as Kd, often an IC50 or EC50 that approximates it; bounds were set here for any values at or beyond the usual limits of such assays
experimental.setup: source organism: Mammarenavirus brazilense
assay.readout: Kd (nM)
Quick reminder: number only, in nM, skip the unit.

What Kd value was documented for this sequence, ELLNTPYCNY ?
206

----------
tgt: HLA-A*31:01
assay.method.text: IEDB peptide-MHC binding, purified MHC/direct/fluorescence; filed as Kd, often an IC50 or EC50 that approximates it; bounds were set here for any values at or beyond the usual limits of such assays
experimental.setup: source organism: Bacillus licheniformis
assay.readout: Kd (µM)
Quick reminder: number only, in µM, skip the unit.

What Kd value was documented for this sequence, KTIECSKEL ?
5.6

----------
tgt: HLA-A*32:01
assay.method.text: IEDB peptide-MHC binding, purified MHC/competitive/radioactivity; filed as Kd, often an IC50 or EC50 that approximates it; bounds were set here for any values at or beyond the usual limits of such assays
experimental.setup: source organism: Lassa virus Josiah
assay.readout: pKd
Scale: negative log10 of molar concentration, which is what pKd denotes.

GET /values?readout=pKd&system=HLA-A*32:01&item= LISIFLHLV
5.17

----------
tgt: HLA-B*35:01
assay.method.text: IEDB peptide-MHC binding, purified MHC/direct/fluorescence; filed as Kd, often an IC50 or EC50 that approximates it; bounds were set here for any values at or beyond the usual limits of such assays
experimental.setup: source organism: Vibrio vulnificus CMCP6
assay.readout: pKd
Scale: negative log10 of molar concentration, which is what pKd denotes.

What pKd value was documented for this sequence, MPIAAAIGT ?
8.52

----------
# pKd per entry
tgt: HLA-A*02:03
assay.method.text: IEDB peptide-MHC binding, purified MHC/competitive/fluorescence; filed as Kd, often an IC50 or EC50 that approximates it; bounds were set here for any values at or beyond the usual limits of such assays
experimental.setup: source organism: Human immunodeficiency virus 1
pKd: −log10 of the molar value.

These solved cases illustrate the format of a correct answer.
In [3]: df
Out[3]:
   sequence_string          tgt  assay_readout  observed
0       EKLKSLFNTI  HLA-A*02:03            pKd      7.43
1      KSLYNTVATLY  HLA-A*02:03            pKd    ≤ 4.70

GET /values?readout=pKd&system=HLA-A*02:03&item= EELRSLFNTI
≤ 4.70

----------
tgt: HLA-B*15:01
assay.method.text: IEDB peptide-MHC binding, purified MHC/competitive/radioactivity; filed as Kd, often an IC50 or EC50 that approximates it; bounds were set here for any values at or beyond the usual limits of such assays
experimental.setup: source organism: Dengue virus 1 Brazil/97-11/1997
assay.readout: Kd
State the value, then name its unit.

These solved cases illustrate the format of a correct answer.
>>> df
   sequence_string  observed
0        LSKSEFNTY   7.88 nM
1       FTMAHRKPTY    313 nM
2       IQTSGTTTIF    5.3 nM
3        WQQVPFCSH    102 nM

Proceeding to the next sequence to report its Kd.
GET /values?readout=Kd&system=HLA-B*15:01&item= AQKRTAAGIM
25.6 nM

----------
tgt: HLA-A*24:02
assay.method.text: IEDB peptide-MHC binding, purified MHC/competitive/fluorescence; bounds were set here for any values at or beyond the usual limits of such assays
experimental.setup: source organism: Vaccinia virus
assay.readout: pIC50
Scale: negative log10 of molar concentration, which is what pIC50 denotes.

What pIC50 value was documented for this sequence, VRSETKQKF ?
5.74

----------
tgt: HLA-A*29:02
assay.method.text: IEDB peptide-MHC binding, purified MHC/direct/fluorescence; filed as Kd, often an IC50 or EC50 that approximates it; bounds were set here for any values at or beyond the usual limits of such assays
experimental.setup: source organism: Mammarenavirus lassaense
assay.readout: Kd

What Kd value was documented for this sequence, SHGIDVTDL ?
≥ 20 µM

----------
tgt: HLA-B*58:01
assay.method.text: IEDB peptide-MHC binding, purified MHC/competitive/radioactivity; filed as Kd, often an IC50 or EC50 that approximates it; bounds were set here for any values at or beyond the usual limits of such assays
experimental.setup: source organism: Dengue virus 3 Martinique/1243/1999
assay.readout: pKd
Scale: negative log10 of molar concentration, which is what pKd denotes.

These solved cases illustrate the format of a correct answer.
>>> df
   sequence_string          tgt  observed
0       TAAVLLLITH  HLA-B*58:01      6.12
1        KAWMVHRQW  HLA-B*58:01      8.97

Proceeding to the next sequence to report its pKd.
What pKd value was documented for this sequence, TASGINMCTL ?
6.99

----------
# IC50 per entry
tgt: HLA-A*02:01
assay.method.text: IEDB peptide-MHC binding, purified MHC/competitive/fluorescence; bounds were set here for any values at or beyond the usual limits of such assays
experimental.setup: source organism: Variola virus
Quick reminder: number only, in nM, skip the unit.

>>> print(df.to_string())
   sequence_string          tgt  observed
0        KLSLTKLFS  HLA-A*02:01      2940

Proceeding to the next sequence to report its IC50.
What IC50 value was documented for this sequence, QVPKLLLWF ?
2060

Source: the Immune Epitope Database (IEDB)
